Reported MC2R IC50 values for a set of binders
Target: T1, human ACTH 1-39 (human)
T1 peptide: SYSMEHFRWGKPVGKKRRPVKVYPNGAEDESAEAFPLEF
Test: cell-based or functional assay
# output: bare number, implied unit nM

Example cases with answers are listed next.
>>> value_reported("Ab9 (antibody, human IgG1, kappa, N297A, V domains shown, rabbit/human chimeric antibody, made in HEK-293) VH: QSVEESGGRLVTPGTPLTLTCTVSGFSLNSYAMSWVRQAPGEGLEWIGIISDSGRTYYASWAKGRFTISKTSTTVDLKITSPTTEDTATYFCAREPEYGYDDYGDWVSDLWGPGTLVTVSS VL: DVVMTQTPASVEAAVGGTVTIKCQASQSISSYLSWYQQKPGQPPKLLIYRASTLASGVPSRFKGSGSGTQFTLTISDLECADAATYYCQSYYYSSSITYRNAFGGGTEVVVKR")
0.12
>>> value_reported("Ab12 (antibody, human IgG1, kappa, N297A, V domains shown, rabbit/human chimeric antibody, made in HEK-293) VH: QSVEESGGRLVTPGTPLTLTCTVSGSSLSDYDMIWVRQAPGKGLESIGIIYDDGDTYYATWAKGRFTISKTSTTVDLRIISPTTEDTATYFCVKGVSNMWGPGTLVTVSS VL: DVVMTQTPSSVSAAVGGTVTIKCQASQSIGSSLAWYQQKPGQRPKLLIYAASTLASGVPSRFKGSGSGTEFTLTISDLECADAATYYCQSYDGSSSSSYGVGFGGGTEVVVKR")
0.05

Here's the next entry for you.
Query block: Tell me the measured MC2R IC50 of Ab7 (antibody, human IgG1, kappa, N297A, V domains shown, rabbit/human chimeric antibody, made in HEK-293) VH: QSVEESGGRLVTPGTPLTLTCTVSGFSLSSYAMSWVRQAPGEGLEWIGIISDSGSTYYASWAKGRFTISKTSTTVDLRITSPTTEDTATYFCAREPEYGYDDYGDWVSDLWGQGTLVTVSS VL: DIVMTQTPASVEAAVGGTVTIKCQASQSISDYLSWYQQKPGQPPKLLIYRASTLASGVPSRFKGSGSGTQFTLTISDLECADAATYYCQSYYYSSSITYRNAFGGGTEVVVKR , please.
Result block: 0.09
